- target under test: T1, cynomolgus monkey FCRL1 (XP_015310712), transiently expressed on 293T cells (cynomolgus monkey)
- T1 chain: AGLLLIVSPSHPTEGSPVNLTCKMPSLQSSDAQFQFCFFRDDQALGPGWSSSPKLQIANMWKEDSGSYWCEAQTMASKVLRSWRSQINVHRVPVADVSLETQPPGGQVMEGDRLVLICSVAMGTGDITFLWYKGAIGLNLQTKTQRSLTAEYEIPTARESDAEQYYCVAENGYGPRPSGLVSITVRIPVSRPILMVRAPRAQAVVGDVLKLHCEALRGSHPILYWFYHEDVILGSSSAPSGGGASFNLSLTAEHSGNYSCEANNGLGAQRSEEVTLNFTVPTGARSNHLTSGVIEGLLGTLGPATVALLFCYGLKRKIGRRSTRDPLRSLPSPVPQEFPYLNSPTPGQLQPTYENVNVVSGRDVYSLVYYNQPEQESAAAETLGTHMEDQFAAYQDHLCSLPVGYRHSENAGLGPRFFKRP
- method summary: flow cytometry on 293T cells transiently expressing cynomolgus monkey FCRL1; apparent KD from EC50 of a 4-parameter fit
observable: Kd

[
  {
    "binder": "anti-human FCRL1 mouse monoclonal antibody DK1166 (antibody, V domains shown) VH: QVQLQQSGPELVKPGASVRISCKASGYTFTSYNIHWVKQRPGQGLEWIGWIYPGDGNTKYNEKFKGKTTLTADKSSSTAYMQLSSLTSEDSAVYFCARRIHYFDYFDYWGQGTTLTLSS VL: DVLMTQTPLSLPVSLGDQVSISCRSGQTIVHSNGNTYLEWYLQKPGQSPKLLIYKVSNRFSGVPDRFSGSGSGTDFTLRISRVEAEDLGVYYCFQGSHVPWTFGGGTKLEIK",
    "Kd": "1 nM"
  },
  {
    "binder": "anti-human FCRL1 mouse monoclonal antibody DK1141 (antibody, V domains shown) VH: EVRLVESGGRLVQPKGSLRLSCAVSGFTFNTYAMYWIRQAPGKGLEWVARIRSKTNNFATYYADSVKDRFTISRDDSQSMLYLQMNNLKTEDTAMYYCVRDNSGSFDYWGQGTTLTVSS VL: DIVMAQSPSSLAVSVGEKVTMSCKSSQSLLHSSNQKNYLAWYQQKPGQSPNLLIYWASSRESGVPDRFTGSGSGTDFTLTISSVQAEDLATYYCQQYYSYPTFGAGTKLDLK",
    "Kd": "0.8 nM"
  }
]

Below: the item to evaluate.
// Kd lookup, binder = anti-human FCRL1 mouse monoclonal antibody DK1164 (antibody, V domains shown) VH: QVQLQQSGTELVRPGTSVKVSCKASGYAFTNYLIEWVKQRPGQGLEWIGVINPGSGGTDYNKKFKGKAMLTADKSSNTAYMQLSSLTSDDSAVYFCARSNSYAMDYWGQGTSVTVSS VL: DIVMSQSPSSLAVSVGEKVTVSCKSSQSLLYSGNQKNNLAWYKQKPGQSPKLLIYWASTRESGVPDRFTGSGSGTDFTLTMSSVKAEDLAVYYCQQYYSYPWTFGGGTKLEIK , result: 1.4 nM
